Each record here notes measured MIC.
- EXPERIMENTAL TARGET: Multidrug efflux pump subunit AcrB (Escherichia coli (strain K12)) (UniProt P31224)
- Sequence (P31224 whole entry): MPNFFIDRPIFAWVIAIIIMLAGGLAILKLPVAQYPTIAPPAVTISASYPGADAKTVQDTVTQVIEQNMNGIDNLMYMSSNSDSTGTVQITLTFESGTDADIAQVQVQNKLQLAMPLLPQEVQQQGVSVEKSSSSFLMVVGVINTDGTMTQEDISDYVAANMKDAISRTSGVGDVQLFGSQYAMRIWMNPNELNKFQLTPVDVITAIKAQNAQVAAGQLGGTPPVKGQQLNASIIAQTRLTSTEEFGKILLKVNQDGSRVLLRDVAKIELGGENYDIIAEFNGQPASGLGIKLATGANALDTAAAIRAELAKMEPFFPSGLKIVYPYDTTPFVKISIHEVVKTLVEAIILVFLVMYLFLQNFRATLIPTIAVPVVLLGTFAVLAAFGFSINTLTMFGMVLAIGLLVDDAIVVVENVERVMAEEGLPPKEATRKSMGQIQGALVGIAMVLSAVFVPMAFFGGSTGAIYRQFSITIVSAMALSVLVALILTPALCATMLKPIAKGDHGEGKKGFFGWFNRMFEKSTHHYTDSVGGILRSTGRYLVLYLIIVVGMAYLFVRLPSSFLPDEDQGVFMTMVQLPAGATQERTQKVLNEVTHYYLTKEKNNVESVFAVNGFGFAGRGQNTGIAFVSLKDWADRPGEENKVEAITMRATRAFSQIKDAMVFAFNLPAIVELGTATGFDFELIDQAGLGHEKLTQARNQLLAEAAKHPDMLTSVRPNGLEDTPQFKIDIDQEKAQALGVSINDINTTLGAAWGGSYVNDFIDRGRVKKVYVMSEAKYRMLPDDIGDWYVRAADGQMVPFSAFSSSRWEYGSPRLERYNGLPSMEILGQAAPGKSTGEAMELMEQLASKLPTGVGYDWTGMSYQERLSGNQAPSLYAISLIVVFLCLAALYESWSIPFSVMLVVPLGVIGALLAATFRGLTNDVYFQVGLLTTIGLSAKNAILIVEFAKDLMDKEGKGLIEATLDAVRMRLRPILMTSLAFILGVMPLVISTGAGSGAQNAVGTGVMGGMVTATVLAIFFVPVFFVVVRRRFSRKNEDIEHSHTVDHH
- TEST PROTOCOL: Inhibition of AcrB in multidrug-resistant Escherichia coli BW25113 assessed as potentiation of chloramphenicol-induced antibacterial activity by measuring chloramphenicol MIC at 8 ug/ml by checkerboard titration method (reference value: 8 ug/ml)
- CONDITION PARAMETERS: dose 8.0 µg/ml
MEASUREMENT TYPE: MIC (µg/mL)

[[record]]
compound = "CC1(C)CC(=O)c2ccc(OCC(=O)Nc3ccc(C#N)c(C(F)(F)F)c3)cc2O1"
unit_descriptor = "µg/mL"
obs_value = 8

[[record]]
compound = "COc1cccc(COc2cccc3c4c(c(C(=O)N5CCOCC5)cc23)CCC(C)(C)O4)c1"
unit_descriptor = "µg/mL"
obs_value = 4

[[record]]
compound = "CC1CN(C(=O)c2cc3c(OCc4ccc(Br)cc4)cccc3c3c2CCC(C)(C)O3)CC(C)O1 (stereo not given)"
unit_descriptor = "µg/mL"
obs_value = 8

[[record]]
compound = "CNC(=O)c1ccc(COc2cccc3c4c(c(Cn5cnnn5)cc23)CCC(C)(C)O4)cc1"
unit_descriptor = "µg/mL"
obs_value = 8

[[record]]
compound = "CC1(C)CCc2c(Cn3cnnn3)cc3c(OCc4ccccc4)cccc3c2O1"
unit_descriptor = "µg/mL"
obs_value = 8


Source listed as ChEMBL document CHEMBL4732114.
